Reference for the values: ChEMBL document CHEMBL1124434

Biological target: 5-hydroxytryptamine receptor 1A (Rattus norvegicus) (UniProt P19327)
Sequence (P19327 whole entry): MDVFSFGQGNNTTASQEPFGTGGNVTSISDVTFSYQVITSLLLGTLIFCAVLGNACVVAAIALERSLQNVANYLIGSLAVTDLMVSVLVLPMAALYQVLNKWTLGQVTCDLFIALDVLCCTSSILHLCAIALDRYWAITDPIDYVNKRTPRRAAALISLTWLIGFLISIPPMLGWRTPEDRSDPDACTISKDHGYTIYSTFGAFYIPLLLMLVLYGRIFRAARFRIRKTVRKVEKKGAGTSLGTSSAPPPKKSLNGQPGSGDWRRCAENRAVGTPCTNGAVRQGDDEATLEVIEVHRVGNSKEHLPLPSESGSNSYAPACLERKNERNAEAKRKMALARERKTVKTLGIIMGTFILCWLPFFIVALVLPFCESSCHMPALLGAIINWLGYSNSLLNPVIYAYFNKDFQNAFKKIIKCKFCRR
Assay: Concentration necessary to achieve half maximal inhibition of [3H]8-Hydroxy-2-(di-n-propylamino)tetralin binding to 5-hydroxytryptamine 1A receptor at 1 uM
I'd be grateful if you could share measured Change for these entries.
Give the number; % is assumed, so skip it.

Request: Give the measured Change of CN1CCC[C@@H]2c3cccc(O)c3OC[C@H]21 .
Result: -45

Request: Give the measured Change of CCCN1CCC=C2c3cccc(O)c3OCC21 (stereo not given) .
Result: -36

Request: Give the measured Change of CN1CCC[C@@H]2c3cc(O)ccc3OC[C@H]21 .
Result: -13

Request: Give the measured Change of CN1CCC=C2c3cc(O)ccc3OCC21 (stereo not given) .
Result: -42

Request: Give the measured Change of CCCN1CCC[C@@H]2c3ccc(O)cc3OC[C@H]21 .
Result: -17
